Origin of the recorded values: PubChem BioAssay (NCI)

System: TK-10 renal
Assay: NCI tumour cell line growth inhibition, 48 h
experimental readout: TGI (µM)
Numbers only; they are read as µM.

# compound, measured value
measured = [
    ("Nc1ncnn2c(C3OC(CO)C(O)C3O)ccc12 (centres undefined)", 0.682),
    ("C=C1C(=O)O[C@H]2[C@H]1CC/C(COC(=O)NCc1cn(C)c3ccccc13)=C\\CC[C@@]1(C)O[C@@H]21", 3.43),
]

Next compound, please.
Could you share what TGI was measured for CCN(CC)c1c(C(=O)/C=C/c2ccc(OC)cc2)c(-c2ccccc2)nn(C)c1=O , tested on TK-10 renal?
99.9

* * *

Test system: OVCAR-3 ovarian
Assay: NCI tumour cell line growth inhibition, 48 h
molecules and their reported GI50

Below are worked cases with known answers.
# molecule, GI50
rows = [
    ("COc1cc([N+](=O)[O-])c(OC)cc1-c1nc2sc(Cl)cn2c1/C(N)=N/C(=N)N", "1720 nM"),
    ("COc1ccc(/C(COc2ccc3c(=O)cc(-c4ccccc4)oc3c2)=N\\O)cc1", "10300 nM"),
    ("COc1ccc(-c2cn(-c3cc(OC)c(OC)c(OC)c3)c(SCc3ccccc3)n2)cc1OC", "> 100000 nM"),
    ("COc1ccc(-c2c[nH]c(C(=O)O)c2-c2cc(OC)c(OC)c(OC)c2)cc1", "2740 nM"),
    ("CC(C)(C)n1cc(-c2ccnc(NCCCNS(=O)(=O)c3ccc(C(F)(F)F)cc3)c2)c(-c2cccc(O)c2)n1", "1960 nM"),
    ("CC(C)N(Cc1ccccc1)c1c(S)ssc1=S", "1210 nM"),
]

Can you look up the measured GI50 of COc1cc(NC(C)CCCNC2CN3CCC2CC3)c2ncccc2c1 (stereo not drawn) for me?
3220 nM

And then COc1ccc(C(=O)OC2C(OC3C(O)COC(O[C@H]4C[C@H]5[C@@H]6CC=C7C[C@@H](O)CC[C@]7(C)[C@H]6CC[C@]5(C)[C@H]4[C@H](C)C(=O)CCC(C)C)C3OC(N)=O)OCC(O)C2O)cc1 (stereo partly drawn) , what is it?
755 nM

And then Cc1cc2c(cc1C)N(C(=O)CCl)CC(=O)N2 , what is it?
1890 nM

And then COc1cc(C[C@H]2c3cc(OC)c(OC)cc3CCN2C)c(Oc2cc3c(cc2OC)-c2c(OC)c(OC)cc4c2[C@H](C3)N(C)CC4)cc1OC , what is it?
11800 nM

And then CN(O)c1nc(N(C)O)nc(N2CCOCC2)n1 , what is it?
10200 nM

And then C[C@H]1[C@H](C)CC[C@]2(CO)CC[C@]3(C)C(=CC[C@@H]4[C@@]5(C)CCCNC(C)(C)[C@@H]5CC[C@]43C)[C@H]12 , what is it?
1830 nM

And then C(#Cc1ccccc1C#Cc1cccs1)c1cccs1 , what is it?
57100 nM

* * *

Test system: TK-10 renal
Assay: NCI tumour cell line growth inhibition, 48 h
compounds and their reported TGI

Below are worked cases with known answers.
# compound, system name, measured value
data = [
    ("N#Cc1c(-c2ccccc2)cc(-c2ccccc2)n(C2OC(CO)C(O)C(O)C2O)c1=S (stereo not given)", "TK-10 renal", "> 100 µM"),
    ("COc1ccc(C2=CC(c3ccc4c(c3)OCO4)c3c(c4ccccc4oc3=O)O2)cc1OC (stereo not given)", "TK-10 renal", "> 100 µM"),
    ("C=C1C(=O)O[C@H]2[C@H]1CC/C(COC(=O)NCc1ccc(Cn3c(=O)sn(CCCl)c3=O)cc1)=C\\CC[C@@]1(C)O[C@@H]21", "TK-10 renal", "3.43 µM"),
    ("COc1ccc2c3c1O[C@]1(C)C34CCN(C)C(C2)C42C=C[C@@]1(OC)c1c(O)ccc(O)c12", "TK-10 renal", "> 100 µM"),
]

Next compound, please.
Can you look up the measured TGI of CP1(=O)CCCCC1 for me?
> 100 µM
